Catalogue of molecules with associated viability, T/C
- Tested on: 845751-090-R-J2-PDC tumor spheroid viability;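 note: spheroids exposed to compounds for 7 days before readout; CTG3D luminescence normalised so that 100% = DMSO vehicle control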
- Procedure Text: Anticancer human tumor 845751-090-R-J2-PDC patient-derived head and neck squamous carcinoma cell line growth inhibition [IpAb]
- Condition Set: second compound 1 µM; first compound 0.0316 µM; stronger effect = lower value; spheroids with HUVEC and MSC
Dear colleague, please return just the value in %, with no unit written.

Molecule	Unit Of Measurement	viability, T/C
CCCS(=O)(=O)Nc1ccc(F)c(C(=O)c2c[nH]c3ncc(-c4ccc(Cl)cc4)cc23)c1F + CCN1CCN(Cc2ccc(Nc3ncc(F)c(-c4cc(F)c5nc(C)n(C(C)C)c5c4)n3)nc2)CC1	%	81.5
CC1(C)CCC(CN2CCN(c3ccc(C(=O)NS(=O)(=O)c4ccc(NCC5CCOCC5)c([N+](=O)[O-])c4)c(Oc4cnc5[nH]ccc5c4)c3)CC2)=C(c2ccc(Cl)cc2)C1 + CCN1CCN(Cc2ccc(Nc3ncc(F)c(-c4cc(F)c5nc(C)n(C(C)C)c5c4)n3)nc2)CC1	%	106

Next item in the queue.
Request the reported viability, T/C associated with Cc1nc(NC(=O)N2CCCC2C(N)=O)sc1-c1ccnc(C(C)(C)C(F)(F)F)c1 (stereo not drawn) + CC(C)NCC(C(=O)N1CCN(c2ncnc3c2C(C)CC3O)CC1)c1ccc(Cl)cc1
17.4
